system.under.test: Mannose-6-phosphate isomerase (Homo sapiens) (UniProt P34949)
Sequence (P34949 whole entry, looked up): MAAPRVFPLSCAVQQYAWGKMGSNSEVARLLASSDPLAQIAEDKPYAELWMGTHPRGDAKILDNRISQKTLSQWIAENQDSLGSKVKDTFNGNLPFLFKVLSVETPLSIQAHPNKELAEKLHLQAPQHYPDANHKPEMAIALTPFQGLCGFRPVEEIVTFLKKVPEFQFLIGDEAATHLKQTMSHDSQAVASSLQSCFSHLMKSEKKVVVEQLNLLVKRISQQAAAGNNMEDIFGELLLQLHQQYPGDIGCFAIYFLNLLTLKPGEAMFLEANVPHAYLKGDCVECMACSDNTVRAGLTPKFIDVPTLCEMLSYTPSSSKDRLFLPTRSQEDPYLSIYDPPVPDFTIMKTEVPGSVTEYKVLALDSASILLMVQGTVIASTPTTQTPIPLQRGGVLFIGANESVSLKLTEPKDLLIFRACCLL
protocol: MPI inhibition at elevated mannose 6-phosphate – biochemical, fluorescence intensity, high mannose 6-phosphate, primary screen (AID 1220)
condition: recombinant PMI enzyme, coupled fluorescence intensity; at 20 µM; stronger effect = higher value
The campaign covered roughly 190,000 compounds. About 1,300 (0.68%) were called active. The sample as a whole holds a higher share of actives than the screen did.
quantity.name: inhibition (%)
Report the value in % with no unit label.

Problem: Look up and report measured inhibition for this entry: CCN(CC)c1ccc(/C=N/Nc2cccc(C)c2)c(O)c1
Solution: -62.5

Problem: Look up and report measured inhibition for this entry: C/C(=N\Nc1ccccn1)c1ccc(C(C)C)cc1
Solution: 11.6

Problem: Look up and report measured inhibition for this entry: O=C1CCCC/C1=C\Nc1ccc(O)cc1
Solution: 25

Problem: Look up and report measured inhibition for this entry: CCN(CC)c1ccc(/C=N/NC(=S)NC)c(O)c1
Solution: 21.9

Problem: Look up and report measured inhibition for this entry: O=C(O)C1CCC(=O)N1Cc1ccc(F)cc1 (stereo unspecified)
Solution: -3.6

Problem: Look up and report measured inhibition for this entry: CCOC(=O)c1c(NC(=O)CN2CCCc3ccccc32)sc(C)c1CC
Solution: 7.2

Problem: Look up and report measured inhibition for this entry: CCN=c1scc(C)n1/N=C/c1cc(Br)c(O)c(Br)c1
Solution: -6.2

Problem: Look up and report measured inhibition for this entry: COc1ccccc1NC(=O)NCC(c1ccco1)N1CCCCC1 (stereo unspecified)
Solution: 0.2

Problem: Look up and report measured inhibition for this entry: O=C(O)CCCNc1cc(N2CCC3(CC2)OCCO3)c2noc3c2c1C(=O)c1ccccc1-3
Solution: 54.1

Problem: Look up and report measured inhibition for this entry: COCCOc1ccc(C(F)(F)F)cc1N
Solution: 8.3

Problem: Look up and report measured inhibition for this entry: CCOC(=O)N1CCN(c2cc(NCCC(=O)O)c3c4c(onc24)-c2ccccc2C3=O)CC1
Solution: -2.8

Problem: Look up and report measured inhibition for this entry: CN=c1scc(-c2cccs2)n1/N=C/c1ccc(O)c(O)c1O
Solution: 34.6

Problem: Look up and report measured inhibition for this entry: CCN(CC)c1ccc(C=Nc2cc(C)cc(C)c2)c(O)c1
Solution: 52.8

Problem: Look up and report measured inhibition for this entry: CCN(CC)c1ccc(/C=N/N=C(c2ccccc2)c2ccccc2)c(O)c1
Solution: 4.8

Problem: Look up and report measured inhibition for this entry: CCN(CC)c1ccc(/C=N/N(c2ccccc2)c2ccccc2)c(O)c1
Solution: 30

Problem: Look up and report measured inhibition for this entry: COc1cc(CN2CCC(C(=O)NC3CCCC3)CC2)cc(OC)c1O
Solution: 63.9

Problem: Look up and report measured inhibition for this entry: CCN(CC)c1ccc(C=Nc2ccccc2)c(O)c1
Solution: 61.8

Problem: Look up and report measured inhibition for this entry: C#CCOCCOCCOCCNc1nc(N2CCN(C(=O)[C@H](C)n3cc(CCCN=C(N)N)nn3)CC2)nc(N2CCN(C(=O)[C@H](Cc3ccc(O)cc3)n3cc(CCO)nn3)CC2)n1
Solution: -38

Problem: Look up and report measured inhibition for this entry: CN(CC(=O)Nc1ccc(N2CCOCC2)cc1)C(=O)C1CCCC1
Solution: 9.6

Problem: Look up and report measured inhibition for this entry: CC(C)OCCCNc1ncc2c(n1)CC(c1ccc(N(C)C)cc1)CC2=O (stereo unspecified)
Solution: 22.7

Problem: Look up and report measured inhibition for this entry: COC(=O)C1=C(C)OC(N)=C(C#N)C1c1cccnc1 (stereo unspecified)
Solution: 0.3

Problem: Look up and report measured inhibition for this entry: CCOCCCNc1ncc2c(n1)CC(c1ccc(C)cc1)CC2=O (stereo unspecified)
Solution: 9.4

Problem: Look up and report measured inhibition for this entry: c1ccc2c(c1)NC1(CCCCC1)n1c-2nc2ccccc21
Solution: 8.3

Problem: Look up and report measured inhibition for this entry: O=C(Nc1ccc2oc(-c3ccc(F)cc3)nc2c1)c1ccccc1F
Solution: 1

Problem: Look up and report measured inhibition for this entry: C=CCn1c(SCC(=O)Nc2cccc3ccccc23)nc(O)c(CC)c1=O
Solution: -3.4

Problem: Look up and report measured inhibition for this entry: CC(=O)C1=C(C)OC(N)=C(C#N)C1c1cccnc1 (stereo unspecified)
Solution: 42.6

Problem: Look up and report measured inhibition for this entry: Cc1cccc(NCN2C(=O)C3C4C=CC(C4)C3C2=O)c1 (stereo unspecified)
Solution: 3.7

Problem: Look up and report measured inhibition for this entry: COc1ccc(C(=O)N2CCCC2)cc1S(=O)(=O)N1CCC(C)CC1
Solution: 5.6

Problem: Look up and report measured inhibition for this entry: CCOC(=O)C(=O)Nc1ccc([N+](=O)[O-])cc1OC
Solution: 16.8

Problem: Look up and report measured inhibition for this entry: CCCCC/C=N\NC(=O)Cc1ccc([N+](=O)[O-])cc1
Solution: -6.9

Problem: Look up and report measured inhibition for this entry: CC(C)OCCCNc1ncc2c(n1)CC(c1cccs1)CC2=O (stereo unspecified)
Solution: 61.9

Problem: Look up and report measured inhibition for this entry: CCN=c1scc(-c2ccco2)n1/N=C/c1ccc(OC)c(O)c1
Solution: -17.3

Problem: Look up and report measured inhibition for this entry: COc1cc(CN2CCC(C(=O)N3CCN(c4ccccc4F)CC3)CC2)cc(OC)c1OC
Solution: 9.1

Problem: Look up and report measured inhibition for this entry: Nc1cc(OCC(F)(F)F)cc(OCC(F)(F)F)c1
Solution: 56.9

Problem: Look up and report measured inhibition for this entry: CNC(=S)Nc1cccc2[nH]ncc12
Solution: 2.6

Problem: Look up and report measured inhibition for this entry: CCC(/C=C1\Sc2ccc(OC)cc2N1CCO)=C\c1sc2ccc(OC)cc2[n+]1CCO
Solution: 13

Problem: Look up and report measured inhibition for this entry: Cc1cccnc1CCNC(=O)CCc1nnc(CCc2ccccc2)o1
Solution: 17.7

Problem: Look up and report measured inhibition for this entry: Cc1ccc(C2NC(=O)c3c(sc(C)c3C)N2)c(O)c1 (stereo unspecified)
Solution: -21.9

Problem: Look up and report measured inhibition for this entry: O=C1C(Cl)=C(NCC2CCCO2)C(=O)N1c1ccccc1 (stereo unspecified)
Solution: 2.7

Problem: Look up and report measured inhibition for this entry: CN=c1scc(-c2cccs2)n1/N=C/c1ccccc1O
Solution: 14.7

Problem: Look up and report measured inhibition for this entry: COc1cc(CN2CCC(C(=O)NC3CCCC3)CC2)cc(Br)c1O
Solution: 14.6

Problem: Look up and report measured inhibition for this entry: COc1cc(CN2CCC(C(=O)NC3CCCC3)CC2)ccc1O
Solution: 3.5

Problem: Look up and report measured inhibition for this entry: CCN=c1scc(C)n1/N=C/c1ccsc1
Solution: 2.6

Problem: Look up and report measured inhibition for this entry: COc1ccc(Nc2n[nH]c(N)c2C(N)=O)cc1
Solution: 1.4

Problem: Look up and report measured inhibition for this entry: COc1ccc(CN2CCN(c3ccccn3)CC2)c(OC)c1
Solution: -6.3

Problem: Look up and report measured inhibition for this entry: Cn1c(=O)c2c(-c3ccc(C(C)(C)C)cc3)n(N3CCOCC3)cc2n(C)c1=O
Solution: -3.7
